Origin of values: patent US20150072968A1

We begin with a simple list: items and their reported AUC(0-t).
Experimental Details: Phase 1 single dose PK of 750 mg ceftolozane/tazobactam in severe renal impairment and ESRD on hemodialysis (Example 8)
Assay type: in vivo, human
Recorded Conditions: both sexes, human, plasma, intravenous, 750 mg, subjects with ESRD; read-out: Exposure (AUC48h) During HD (Day 3), Median (Range)

# Compound, Unit Symbol, AUC(0-t)
records = [
    ("Cn1c(N)c(NC(=O)NCCN)c[n+]1CC1=C(C(=O)[O-])N2C(=O)[C@@H](NC(=O)/C(=N\\OC(C)(C)C(=O)O)c3nsc(N)n3)[C@H]2SC1 [Ceftolozane]", "µg·h/mL", 298),
    ("C[C@]1(Cn2ccnn2)[C@H](C(=O)O)N2C(=O)C[C@H]2S1(=O)=O [Tazobactam]", "µg·h/mL", 37.1),
]

----------
We begin with a simple list: items and their reported clearance.
Experimental Details: Phase 1 single dose PK of 750 mg ceftolozane/tazobactam in severe renal impairment and ESRD on hemodialysis (Example 8)
Type: in vivo, human
Recorded Conditions: both sexes, human, plasma, iv, 750 mg, severe renal impairment; single IV 1-hour infusion of 750 mg ceftolozane/tazobactam; read-out: CL, Mean (CV %) (converted)

# Compound, Unit Symbol, clearance
rows = [
    ("Cn1c(N)c(NC(=O)NCCN)c[n+]1CC1=C(C(=O)[O-])N2C(=O)[C@@H](NC(=O)/C(=N\\OC(C)(C)C(=O)O)c3nsc(N)n3)[C@H]2SC1 [Ceftolozane]", "mL/min", 16.7),
    ("C[C@]1(Cn2ccnn2)[C@H](C(=O)O)N2C(=O)C[C@H]2S1(=O)=O [Tazobactam]", "mL/min", 85),
]

----------
Experimental Details: Phase 1 single dose PK of 750 mg ceftolozane/tazobactam in severe renal impairment and ESRD on hemodialysis (Example 8)
Format: in vivo, human
Recorded Conditions: both sexes, human, plasma; ESRD on HD; second IV infusion of 750 mg on Day 4 (during HD); read-out: tmax, Median (minimum, maximum)
Experimental Endpoint: Tmax

# Compound, Result
measured = [
    ("C[C@]1(Cn2ccnn2)[C@H](C(=O)O)N2C(=O)C[C@H]2S1(=O)=O [Tazobactam]", "1 h"),
    ("Cn1c(N)c(NC(=O)NCCN)c[n+]1CC1=C(C(=O)[O-])N2C(=O)[C@@H](NC(=O)/C(=N\\OC(C)(C)C(=O)O)c3nsc(N)n3)[C@H]2SC1 [Ceftolozane]", "1 h"),
]

----------
Experimental Details: Phase 1 single dose PK of 750 mg ceftolozane/tazobactam in severe renal impairment and ESRD on hemodialysis (Example 8)
Format: in vivo, human
Recorded Conditions: both sexes, human, plasma, intravenous, 750 mg, subjects with ESRD; read-out: Exposure (AUC48h) After HD (Day 1), Median (Range)
Experimental Endpoint: AUC(0-t) (µg·h/mL)

# Cpd Smiles, Experimental Endpoint, Numeric Readout
records = [
    ("C[C@]1(Cn2ccnn2)[C@H](C(=O)O)N2C(=O)C[C@H]2S1(=O)=O", "AUC(0-t)", 107),
    ("Cn1c(N)c(NC(=O)NCCN)c[n+]1CC1=C(C(=O)[O-])N2C(=O)[C@@H](NC(=O)/C(=N\\OC(C)(C)C(=O)O)c3nsc(N)n3)[C@H]2SC1", "AUC(0-t)", 903),
]
